Molecular target: UniProt Q8I5D5
Sequence (Q8I5D5 entry or part of it): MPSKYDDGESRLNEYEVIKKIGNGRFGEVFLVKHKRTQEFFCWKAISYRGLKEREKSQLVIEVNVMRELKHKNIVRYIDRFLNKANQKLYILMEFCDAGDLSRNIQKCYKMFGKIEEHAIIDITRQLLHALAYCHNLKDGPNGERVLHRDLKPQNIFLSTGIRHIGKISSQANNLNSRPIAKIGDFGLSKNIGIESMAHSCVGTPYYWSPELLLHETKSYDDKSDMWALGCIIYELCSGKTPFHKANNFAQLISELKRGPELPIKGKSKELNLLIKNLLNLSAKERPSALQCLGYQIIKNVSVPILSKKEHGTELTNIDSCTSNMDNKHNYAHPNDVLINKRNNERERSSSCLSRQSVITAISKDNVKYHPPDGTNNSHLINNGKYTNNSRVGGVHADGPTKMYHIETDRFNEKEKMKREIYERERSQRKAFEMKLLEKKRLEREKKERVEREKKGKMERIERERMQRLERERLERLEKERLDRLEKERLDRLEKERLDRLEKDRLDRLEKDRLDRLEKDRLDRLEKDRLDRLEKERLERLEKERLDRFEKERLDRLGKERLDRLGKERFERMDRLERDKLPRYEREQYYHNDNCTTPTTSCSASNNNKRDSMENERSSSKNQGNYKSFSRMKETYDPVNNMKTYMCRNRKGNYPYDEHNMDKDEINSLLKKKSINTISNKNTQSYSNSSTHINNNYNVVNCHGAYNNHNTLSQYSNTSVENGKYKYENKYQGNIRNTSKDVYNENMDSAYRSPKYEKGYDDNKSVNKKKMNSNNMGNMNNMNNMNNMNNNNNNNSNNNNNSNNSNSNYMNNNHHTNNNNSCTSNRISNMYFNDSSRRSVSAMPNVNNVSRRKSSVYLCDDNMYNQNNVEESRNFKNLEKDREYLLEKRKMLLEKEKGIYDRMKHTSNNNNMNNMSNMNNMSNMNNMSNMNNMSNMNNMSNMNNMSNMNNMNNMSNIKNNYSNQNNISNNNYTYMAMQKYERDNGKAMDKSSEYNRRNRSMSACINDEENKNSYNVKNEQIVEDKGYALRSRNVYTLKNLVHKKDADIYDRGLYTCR
Assay: Pfnek-1 protein kinase assay (33P incorporation in β-casein)
Assay type: biochemical
PROPERTY_LABEL: Pfnek-1 inhibitory activity (in words)

# COMPOUND, STUDY_SYSTEM, PROPERTY_LABEL, ASSAY_VALUE
rows = [
    ("COC(=O)Cc1cc(Br)c(O)c(Br)c1O [Compound 12]", "UniProt Q8I5D5", "Pfnek-1 inhibitory activity (in words)", "inactive"),
    ("COC(=O)Cc1cc(O)ccc1O [Compound 8, Methyl (2,5-dihydroxyphenyl)acetate]", "UniProt Q8I5D5", "Pfnek-1 inhibitory activity (in words)", "inactive"),
    ("O=C1Cc2c(cc(Br)c(O)c2Br)O1 [Compound 6a]", "UniProt Q8I5D5", "Pfnek-1 inhibitory activity (in words)", "inactivity"),
    ("O=C1Cc2cc(O)c(Br)cc2O1 [Compound 6b, 6-bromo-5-hydroxy-3H-benzofuran-2-one]", "UniProt Q8I5D5", "Pfnek-1 inhibitory activity (in words)", "inactivity"),
    ("COC1=C(Br)[C@H](O)[C@@]2(C=C1Br)CC(C(=O)NCCCOc1c(Br)cc(CCNC(=O)C3=NO[C@]4(C=C(Br)C(OC)=C(Br)[C@@H]4O)C3)cc1Br)=NO2", "UniProt Q8I5D5", "Pfnek-1 inhibitory activity (in words)", "inactive"),
    ("COC1=C(Br)[C@H](O)[C@@]2(C=C1Br)CC(C(=O)NCCCOc1c(Br)cc(C(O)CNC(=O)C3=NO[C@]4(C=C(Br)C(OC)=C(Br)[C@@H]4O)C3)cc1Br)=NO2 (some centres unmarked) [Compound 2, 11-deoxyfistularin-3]", "UniProt Q8I5D5", "Pfnek-1 inhibitory activity (in words)", "inactive"),
]
